Target: soluble ectodomain of sortilin-6his (Homo sapiens, UniProt Q99523, V650M)
Construct: the soluble ectodomain of sortilin-6his is measured by microscale thermophoresis (MST)
Sequence (Q99523 with tags, fused parts or gaps V650M): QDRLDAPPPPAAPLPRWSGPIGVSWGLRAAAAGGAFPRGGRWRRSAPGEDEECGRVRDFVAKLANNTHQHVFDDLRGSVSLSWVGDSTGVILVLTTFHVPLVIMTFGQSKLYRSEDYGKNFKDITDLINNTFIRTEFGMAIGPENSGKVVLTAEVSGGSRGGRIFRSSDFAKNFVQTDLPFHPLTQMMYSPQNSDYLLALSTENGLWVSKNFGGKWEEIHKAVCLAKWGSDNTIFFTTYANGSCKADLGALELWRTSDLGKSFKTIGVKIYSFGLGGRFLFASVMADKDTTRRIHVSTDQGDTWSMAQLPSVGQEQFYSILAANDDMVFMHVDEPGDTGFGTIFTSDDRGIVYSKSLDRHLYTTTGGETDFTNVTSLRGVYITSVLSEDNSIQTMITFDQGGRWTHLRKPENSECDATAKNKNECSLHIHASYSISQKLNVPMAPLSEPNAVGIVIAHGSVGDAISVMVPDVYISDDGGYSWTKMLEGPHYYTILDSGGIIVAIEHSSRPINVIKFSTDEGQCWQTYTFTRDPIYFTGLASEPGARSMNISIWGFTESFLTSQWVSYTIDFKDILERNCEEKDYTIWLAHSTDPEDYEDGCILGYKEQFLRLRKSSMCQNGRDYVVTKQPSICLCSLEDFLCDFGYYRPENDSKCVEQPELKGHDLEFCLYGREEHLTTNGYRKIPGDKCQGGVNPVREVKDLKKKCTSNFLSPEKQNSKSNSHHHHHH
Test: MST binding to soluble ectodomain of sortilin-6his
Settings: Table 1; biotin-linker-peptide bifunctional compounds; MST; read-out: KD score, binding to sortilin (Kd)
pKd: −log10 of the molar value. Residues, ends and D or L forms follow the SMILES beside them. *: point of attachment. Biotin = O=C1N[C@H]2[C@H](CS[C@H]2CCCCC(=O)*)N1
endpoint-name: pKd

>>> test_result("CC(C)C[C@H](NC(=O)[C@H](CC(C)C)NC(=O)[C@H](CCC(N)=O)NC(=O)[C@H](CCCNC(=N)N)NC(=O)CNC(=O)CNC(=O)[C@H](CO)NC(=O)CNC(=O)CNC(=O)CNC(=O)CNC(=O)[C@H](CO)NC(=O)CNC(=O)CNC(=O)CNC(=O)CNC(=O)[C@H](CO)NC(=O)CNC(=O)CNC(=O)CCCC[C@@H]1SC[C@@H]2NC(=O)N[C@@H]21)C(=O)O [SEQ ID NO.: 147] (Biotin-GGSGGGGSGGGGSGGRQLL-OH)")
"5.70 to 7.00"

We next turn to a different molecule, shown below.
# value of pKd, soluble ectodomain of sortilin-6his (Homo sapiens, UniProt Q99523, V650M), item CC(C)C[C@H](NC(=O)[C@H](CC(C)C)NC(=O)[C@H](CCC(N)=O)NC(=O)[C@H](Cc1ccccc1)NC(=O)CNC(=O)CNC(=O)CNC(=O)[C@H](CO)NC(=O)CNC(=O)CNC(=O)CNC(=O)CNC(=O)[C@H](CO)NC(=O)CNC(=O)CNC(=O)CCCC[C@@H]1SC[C@@H]2NC(=O)N[C@@H]21)C(=O)O [compound 148] (Biotin-GGSGGGGSGGGFQLL-OH) = 5.70 to 7.00

---

Target: soluble ectodomain of sortilin-6his (Homo sapiens, UniProt Q99523, V650M)
Construct: the soluble ectodomain of sortilin-6his is measured by microscale thermophoresis (MST)
Test: MST binding to soluble ectodomain of sortilin-6his
Settings: Table 4; small molecule bifunctional compounds; MST; read-out: KD score, binding to sortilin (Kd)
pKd: −log10 of the molar value.
Measured pKd values are reported for all entries that follow.

These solved cases illustrate the format of a correct answer.
>>> test_result("CC(C)(C)CC[C@H](NC(=O)c1ccc(Oc2cccc(OCCOCCOCCOCCOCCOCCNC(=O)CCCC[C@@H]3SC[C@@H]4NC(=O)N[C@@H]43)c2)nc1)C(=O)O (stereo in doubt)")
"6.60 to 8.00"
>>> test_result("CC(C)(C)CC[C@H](NC(=O)c1ccc(Oc2cccc(OCCOCCOCCOCCOCCOCCOCCOCCNC(=O)CCCC[C@@H]3SC[C@@H]4NC(=O)N[C@@H]43)c2)nc1)C(=O)O")
"8.00 to 9.00"
>>> test_result("CC(C)(C)CC[C@H](NC(=O)c1ccc(Oc2cccc(C(=O)NCCOCCOCCOCCOCCOCCOc3ncc(-c4ccc5c(n4)N(Cc4cccnc4C#N)C(C)(C)C5=O)cn3)c2)nc1)C(=O)O")
"> 9.00"

get_value(item= CC(C)(C)CC[C@H](NC(=O)c1ccc(Oc2cccc3cc(C(=O)NCCCNC(=O)CCCC[C@@H]4SC[C@@H]5NC(=O)N[C@@H]54)ccc23)nc1)C(=O)O , readout=pKd) returns 6.60 to 8.00

get_value(item= Cc1nc2cc(F)c(-c3cnc(OCCCCCn4cc(COCCOCCOCCOCCNC(=O)COc5cccc(Oc6ccc(C(=O)N[C@@H](CCC(C)(C)C)C(=O)O)cn6)c5)nn4)nc3)nc2c(N[C@H](C)c2cc(C#N)ccc2F)c1Cl , readout=pKd) returns 8.00 to 9.00
